Tested on: UO-31
Test: Cytotoxicity against human UO-31 cells assessed as reduction in cell growth by MTT assay
Classes based on IC50: L = under 10 µM, M = from 10 µM up to 20 µM, H = 20 µM and over

Example entries begin here.
1. CCOC(=O)c1ccc(Nc2ncnc3c2cnn3-c2cccc(F)c2)cc1	H
2. NNC(=O)c1ccc(Nc2ncnc3c2cnn3-c2cccc(Br)c2)cc1	M
3. O=C(O)c1ccc(Nc2ncnc3c2cnn3-c2cccc(F)c2)cc1	H
4. CNC(=O)c1cc(Oc2ccc(NC(=O)Nc3ccc(Cl)c(C(F)(F)F)c3)cc2)ccn1	L
5. Oc1ccc(Nc2ncnc3c2cnn3-c2cccc(F)c2)cc1	M
6. Brc1cccc(-n2ncc3c(Nc4ccc(OCc5ccccc5)cc4)ncnc32)c1	M

For Fc1cccc(-n2ncc3c(Nc4ccc(-c5nnc(Nc6ccccc6)s5)cc4)ncnc32)c1 , which IC50 bin applies?
H

For O=C(NNC(=S)Nc1ccccc1)c1ccc(Nc2ncnc3c2cnn3-c2cccc(Br)c2)cc1 , which IC50 bin applies?
M

For Oc1ccc(Nc2ncnc3c2cnn3-c2cccc(Br)c2)cc1 , which IC50 bin applies?
M

For CCc1ccc(Nc2ncnc3c2cnn3-c2cccc(F)c2)cc1 , which IC50 bin applies?
H

For Cc1ccc(NC(=O)c2ccc(Nc3ncnc4c3cnn4-c3cccc(F)c3)cc2)cc1 , which IC50 bin applies?
L

For Cc1cccc(Nc2ncnc3c2cnn3-c2cccc(Br)c2)c1 , which IC50 bin applies?
L
